The measured values listed here are drawn from patent US9315494B2.

System: IFNα-stimulated STAT-dependent luciferase reporter in Kit225 T cells
ASSAY METHOD TEXT: Kit225 T cell assay, IFNα stimulated STAT-dependent luciferase reporter
Type: cell-based, human
CONDITION CONTEXT: Kit225 T cells, 200 U/mL human recombinant IFNα, 5-6 hours, luciferase; read-out: IFNα (Kit225 T Cell Inhibition Data)
READOUT NAME: IC50 (nM)

CNC(=O)c1cnc(Nc2ccc(-n3cc(F)ccc3=O)cn2)cc1Nc1ccc(F)cc1OC :: 700
CNC(=O)c1cnc(Nc2cc(C#N)ccn2)cc1Nc1ccc(F)cc1OC :: 190
CNC(=O)c1cnc(Nc2ccc(F)cn2)cc1Nc1cccc(F)c1C(N)=O :: 500

[1] CNC(=O)c1cnc(Nc2cccc(-n3ccccc3=O)n2)cc1Nc1cc(F)cc(F)c1OC
[2] CNC(=O)c1cnc(Nc2cc(C(=O)NCCOC)ccn2)cc1Nc1ccc(F)cc1OC
Ask: For 1 and 2 , which recorded IC50 is lower? Respond with the label that goes with your answer.
Result: 2
(2: 820 nM, 1: 2990 nM)

[P] CNC(=O)c1cnc(Nc2cc(C(=O)NCCOC)ccn2)cc1Nc1cc(F)cc(F)c1OC
[Q] CNC(=O)c1cnc(Nc2cc(F)ccn2)cc1Nc1ccc(F)cc1OC
[R] CNC(=O)c1ccnc(Nc2cc(Nc3ccc(F)cc3OC)c(C(=O)NC)cn2)c1
Ask: Provide the items ranked by increasing IC50. Put the labels in the order asked and list them.
Result: P, Q, R

* * *

System: IFNα-stimulated STAT-dependent luciferase reporter in Kit225 T cells
ASSAY METHOD TEXT: Kit225 T cell assay, IFNα stimulated STAT-dependent luciferase reporter
Format: cell-based, human
CONDITION CONTEXT: Kit225 T cells, 200 U/mL human recombinant IFNα, 5-6 hours, luciferase; read-out: IFNα (Kit225 T Cell Inhibition Data)
READOUT NAME: IC50 (nM)

Before answering, review these 4 worked examples.
CNC(=O)c1cnc(Nc2cc(C(N)=O)ccn2)cc1Nc1cccc(F)c1OC :: 1170
CNC(=O)c1cnc(Nc2ccc(F)cn2)cc1Nc1cccc(-c2ncn(C)n2)c1OC :: 8.34
CNC(=O)c1cnc(Nc2cc(C#N)ccn2)cc1Nc1cccc(F)c1C(N)=O :: 1020
CNC(=O)c1cnc(Nc2cc(C)ccn2)cc1Nc1cc(F)cc(F)c1OC :: 80

[a] CNC(=O)c1cnc(Nc2cc(C(=O)N3CCCC3)ccn2)cc1Nc1ccc(F)cc1OC
[b] CNC(=O)c1cnc(Nc2ccc3ccccc3n2)cc1NC1CCCC1C(N)=O (centres unmarked) [Example 289]
[c] CNC(=O)c1cnc(Nc2ccc(N3C(=O)COCC3C)cn2)cc1Nc1ccc(Cl)cc1OC (centres unmarked)
[d] CCC(CC)CNC(=O)c1cccc(Nc2cc(Nc3cc(C)c(F)cn3)ncc2C(=O)NC)c1OC
Ask: Falling order of IC50, please. Sort and list the labels as requested.
Result: b, a, d, c
(b: 7300 nM, a: 740 nM, d: 230 nM, c: 150 nM)

* * *

Test system: IFNα-stimulated STAT-dependent luciferase reporter in Kit225 T cells
ASSAY METHOD TEXT: Kit225 T cell assay, IFNα stimulated STAT-dependent luciferase reporter
Type: cell-based, human
CONDITION CONTEXT: Kit225 T cells, 200 U/mL human recombinant IFNα, 5-6 hours, luciferase; read-out: IFNα (Kit225 T Cell Inhibition Data)
Method: Kit225 T cells with a stably-integrated STAT-dependent luciferase reporter were plated in RPMI (Gibco) containing 10% heat-inactivated FBS (Gibco) and 100 U/mL PenStrep (Gibco). The cells were then stimulated with either 20 ng/mL human recombinant IL-23 or 200 U/mL human recombinant IFNα (PBL InterferonSource) for 5-6 hours. Luciferase expression was measured using the STEADY-GLO® Luciferase Assay System (Promega) according to the manufacturer's instructions.
pIC50: −log10 of the molar value.
READOUT NAME: pIC50

CNC(=O)c1cnc(Nc2cc(C)ccn2)cc1Nc1ccc(F)cc1OC [Example 148] :: 6.52
CNC(=O)c1cnc(Nc2ccc(O)cn2)cc1Nc1ccccc1C(N)=O [Example 81] :: 5.35
CNC(=O)c1cnc(Nc2ccc(C(F)(F)F)cn2)cc1Nc1cccc(-c2ncn(C)n2)c1OC [Example 375] :: 8.02
CNC(=O)c1cnc(Nc2ccc(F)cn2)cc1Nc1ccccc1C1CC1 [Example 185] :: 5.54

[A] CNC(=O)c1cnc(Nc2ccc(C)nn2)cc1Nc1ccccc1S(C)(=O)=O [Example 414]
[B] CNC(=O)c1cnc(Nc2cccc(-c3ccccc3)n2)cc1Nc1cc(F)cc(F)c1OC [Example 143]
[C] CNC(=O)c1cnc(Nc2cc(OC)ccn2)cc1Nc1ccccc1S(C)(=O)=O [Example 15]
[D] CNC(=O)c1cnc(Nc2ccc3ccccc3n2)cc1NC1CCC(F)CC1 (stereo not shown) [Example 287]
Ask: Parameters: sort_field (pIC50), sort_dir (desc). Arrange the labels as the request states and list them.
Result: C, A, B, D

[P] CNC(=O)c1cnc(Nc2cccc(OC)n2)cc1Nc1ccc(Cl)cc1OC [Example 108]
[Q] CNC(=O)c1cnc(Nc2cc(C)nc(C)n2)cc1Nc1cccc(-c2ncnn2CC(F)F)c1OC [Example 379]
[R] CNC(=O)c1cnc(Nc2ccc(OC)cn2)cc1Nc1ccc(Cl)cc1OC [Example 112]
[S] CCc1cccc(Nc2cc(Nc3ccc(Cl)cc3OC)c(C(=O)NC)cn2)n1 [Example 125]
Ask: // ascending sort on recorded pIC50 Sort the labels as requested; that list is your answer.
Result: S, R, P, Q
(S: 5.00, R: 6.40, P: 6.64, Q: 7.52)

[A] CNC(=O)c1cnc(Nc2cc3ccccc3cn2)cc1Nc1ccc(F)cc1OC [Example 146]
[B] CNC(=O)c1cnc(Nc2ccc(F)cn2)cc1Nc1ccc(C(=O)N2CCCCC2)cc1C [Example 235]
Ask: Lab note: check whether A or B shows the higher recorded pIC50. Write down the label attached to your selection.
Result: B

[1] CNC(=O)c1cnc(Nc2ccc(N3CCOCC3)cn2)cc1Nc1ccc(Cl)cc1OC [Example 104]
[2] CNC(=O)c1cnc(Nc2ccc(F)cn2)cc1Nc1ccc(F)cc1S(C)(=O)=O [Example 13]
Ask: Lab note: check whether 1 or 2 shows the higher recorded pIC50. # respond with the chosen item's label
Result: 1

[A] CNC(=O)c1cnc(Nc2cccc(C(F)(F)F)n2)cc1Nc1cc(F)cc(F)c1OC [Example 138]
[B] CNC(=O)c1cnc(Nc2ccc(C(F)(F)F)cn2)cc1Nc1cc(F)cc(F)c1OC [Example 135]
Ask: Higher pIC50 between A and B ? Your answer should be the label of the entry you select.
Result: A

[A] CNC(=O)c1cnc(Nc2cc(-c3ccccc3)ccn2)cc1Nc1ccccc1C(N)=O [Example 75]
[B] [2H]C([2H])([2H])NC(=O)c1cnc(Nc2ccc(C)nn2)cc1Nc1cccc(-c2csc(C)n2)c1OC [Example 448]
[C] CNC(=O)c1cnc(Nc2ccccn2)cc1Nc1ccc(F)cc1S(C)(=O)=O [Example 10]
[D] CNC(=O)c1cnc(Nc2ccc(N3CCCC3=O)cn2)cc1Nc1ccc(F)cc1OC [Example 127]
[E] CNC(=O)c1cnc(Nc2ccc3ccccc3n2)cc1NC1CCC(F)(F)CC1 [Example 292]
Ask: I would appreciate it if you could sort these 5 molecules by pIC50, starting from the smallest number. Use the labels to give the requested order.
Result: E, A, D, C, B
(E: 5.25, A: 5.76, D: 6.33, C: 6.92, B: 7.77)

[A] CNC(=O)c1cnc(Nc2cc(C)c(F)cn2)cc1Nc1cccc(C(=O)NCCC(C)(C)O)c1OC [Example 333]
[B] CNC(=O)c1cnc(Nc2cc(C)c(F)cn2)cc1Nc1cccc(-c2ncn(C)n2)c1OC(F)F [Example 388]
[C] CNC(=O)c1cnc(Nc2cc(C)c(C#N)cn2)cc1Nc1ccccc1S(C)(=O)=O [Example 447]
[D] CNC(=O)c1cnc(Nc2ccc(F)cn2)cc1Nc1ccc(C(=O)N(C)C)cc1S(C)(=O)=O [Example 306]
[E] CNC(=O)c1cnc(Nc2ccc(C(F)(F)F)cn2)cc1NC1CCCCC1C(N)=O (stereo not shown) [Example 290]
Ask: In this exercise, place the 5 molecules in ascending sequence of their recorded pIC50. Field: ranking. Enter the labels in the order requested.
Result: E, D, C, A, B
(E: 5.18, D: 6.25, C: 6.80, A: 7.05, B: 7.70)

[P] CNC(=O)c1cnc(Nc2cc(C)ccn2)cc1Nc1ccc(F)c(F)c1OC [Example 100]
[Q] CNC(=O)c1cnc(Nc2cc(C)c(F)cn2)cc1Nc1cccc(C(=O)NCCCOC)c1OC [Example 349]
[R] CNC(=O)c1cnc(Nc2ccc(C(=O)N(C)C)cn2)cc1Nc1ccc(Cl)cc1OC [Example 262]
Ask: List by increasing pIC50. To answer, arrange all of the labels according to the requested order.
Result: R, P, Q
(R: 6.39, P: 6.92, Q: 7.22)
